Listing: IC50 of selected compounds
# System Under Test: hACSL5 (Homo sapiens (Human))
# Sequence (Q9ULC5 33-683): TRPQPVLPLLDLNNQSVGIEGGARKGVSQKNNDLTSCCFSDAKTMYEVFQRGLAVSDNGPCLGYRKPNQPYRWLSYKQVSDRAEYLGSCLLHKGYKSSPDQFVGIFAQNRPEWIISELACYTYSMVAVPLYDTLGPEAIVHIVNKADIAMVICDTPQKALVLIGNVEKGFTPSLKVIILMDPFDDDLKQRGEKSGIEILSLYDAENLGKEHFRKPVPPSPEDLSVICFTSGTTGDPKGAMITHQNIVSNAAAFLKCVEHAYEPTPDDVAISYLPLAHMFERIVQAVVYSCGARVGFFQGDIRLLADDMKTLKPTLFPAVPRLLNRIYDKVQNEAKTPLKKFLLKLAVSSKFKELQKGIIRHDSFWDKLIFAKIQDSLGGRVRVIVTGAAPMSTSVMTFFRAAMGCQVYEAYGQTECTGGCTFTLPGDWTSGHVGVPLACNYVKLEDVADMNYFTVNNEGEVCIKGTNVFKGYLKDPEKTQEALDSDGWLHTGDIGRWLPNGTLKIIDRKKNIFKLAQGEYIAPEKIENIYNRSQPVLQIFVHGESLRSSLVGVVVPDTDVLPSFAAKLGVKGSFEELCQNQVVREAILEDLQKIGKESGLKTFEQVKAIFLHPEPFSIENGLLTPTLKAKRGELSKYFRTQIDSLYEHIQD
# Experiment Notes: Human ACSL5 coupled enzyme Amplex Red assay
# Format: biochemical
# Condition Info: read-out: hACSL5 IC50

Recorded results for 4 compounds are shown here.
# Compound, Result
rows = [
    ("CC[C@@H](Oc1ccc(C(=O)NS(=O)(=O)c2ccc(NC3CCN(C(C)C)CC3)nc2)c(F)c1F)c1ccc(OCC2CC2)cn1", "< 0.1 µM"),
    ("CC[C@@H](Oc1ccc(C(=O)NS(=O)(=O)N2CCN(C)CC2)cc1C(F)(F)F)c1ccc(OCC2CC2)cn1", "< 0.1 µM"),
    ("CC[C@@H](Oc1ccc(C(=O)NS(=O)(=O)N2CCN(C)CC2)c(F)c1F)c1cc(OC2CC(OC)C2)ccn1 (some centres unmarked)", "> 0.5 µM"),
    ("CC[C@@H](Oc1ccc(C(=O)NS(=O)(=O)c2ccc(OC3CN(C)C3)cc2)c(F)c1F)c1ccc(OCC2CC2)cn1", "< 0.1 µM"),
]

Switching to the query record.
## Task Determine reported IC50 for CC[C@@H](Oc1ccc(C(=O)NS(=O)(=O)c2ccc(O[C@@H]3C[C@H]4C[C@@H]3CN4C)cc2)c(F)c1F)c1ccc(OCC2CC2)cn1 ; test system: hACSL5 (Homo sapiens (Human)).
## Result < 0.1 µM

###

# System Under Test: hACSL5 (Homo sapiens (Human))
# Experiment Notes: Human ACSL5 coupled enzyme Amplex Red assay
# Format: biochemical
# Condition Info: read-out: hACSL5 IC50
pIC50: −log10 of the molar value.
Listing: pIC50 of selected molecules

Recorded results for 8 molecules are shown here.
# Molecule, Endpoint Name, Result
records = [
    ("CC[C@@H](Oc1ccc(C(=O)NS(=O)(=O)c2ccc(NCCN3CCCC3)nc2)c(F)c1F)c1ccc(OCC2CC2)cn1", "pIC50", "> 7.00"),
    ("CC[C@@H](Oc1ccc(C(=O)NS(=O)(=O)N2CCN(CC3CC3)CC2)c(F)c1F)c1ccc(Oc2ccccn2)cn1", "pIC50", "> 7.00"),
    ("CC[C@@H](Oc1ccc(C(=O)NS(=O)(=O)N2CCN(C)CC2)cc1C(F)(F)F)c1ccc(OC2CC(OC)C2)cn1 (stereo partly shown)", "pIC50", "6.30 to 7.00"),
    ("CC[C@@H](Oc1ccc(C(=O)NS(=O)(=O)c2ccc(OCC[C@H]3CCCCN3C)cc2)c(F)c1F)c1ccc(OCC2CC2)cn1", "pIC50", "> 7.00"),
    ("CCOc1ccc(C(CC)Oc2ccc(C(=O)NS(=O)(=O)c3ccc(OCCNC)cc3)cc2C(F)(F)F)nc1 (stereo not shown)", "pIC50", "> 7.00"),
    ("CC[C@@H](Oc1ccc(C(=O)NS(=O)(=O)c2ccc(OCCNC)cc2)c(F)c1F)c1ccc(OCC2CC2)cn1", "pIC50", "> 7.00"),
    ("CC[C@@H](Oc1ccc(C(=O)NS(=O)(=O)N2CCN(CC3CC3)CC2)c(F)c1F)c1ccc(OCC2CC2)cn1", "pIC50", "> 7.00"),
    ("CC[C@@H](Oc1ccc(C(=O)NS(=O)(=O)c2ccc(OC34CCN(CC3)C4)cc2)c(F)c1F)c1ccc(OCC2CC2)cn1", "pIC50", "> 7.00"),
]

## Task Specify pIC50 for CC(Oc1ccc(C(=O)NS(=O)(=O)c2ccc(CN)cc2)cc1C(F)(F)F)c1cccc(Oc2cnccn2)c1 (stereo not shown) and stop.
## Result > 7.00

## Task Specify pIC50 for CC[C@@H](Oc1ccc(C(=O)NS(=O)(=O)N2CCC(OCCN3CCCC3)CC2)c(F)c1F)c1ccc(OCC2CC2)cn1 and stop.
## Result 6.30 to 7.00
